Test: protein stability index of a GFP-peptide fusion (GPS, HEK-293T) (PSI 1-6); higher = more stable;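 further: 24-mer peptide tiles fused after GFP, lentivirally expressed, FACS-sorted into six equal bins by GFP/DsRed ratio, decoded by Illumina sequencing, PSI is the read-weighted mean bin number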
Conditions: treatment: MLN4924 1 uM, 8 h; c terminus: a fixed tail appended
If the reported protein stability index equals or exceeds 3, assign Yes. If not, assign No.

querySequence	answerLabel
RPSEIKDYSPYFKTIEDLRNKIIA [KRT16]	No
LPSSGEGLAFFTFPNIASATKFKQ [HMOX1]	No
ILHLICLLEKVPCTLEQDHFKKQT [FEM1C]	No
EEMRELRRKIRELQLRYSLRILIG [BEX5]	No
KEVGSHFDDFVTNLIEKSASLDNG [SOAT1]	Yes
HPRALPPDARPHRRPHELLPVGGR [HAGHL]	Yes
LMNDVIDTSGFPDLSDNRNEDPLV [FBXO33]	Yes
QRPLVSVTVSDASWVSELLWSLFV [AUP1]	No
ITAGAHRLWSHRSYKARLPLRLFL [SCD]	No
CTDHELENHSMYCVQCKMPVCYQC [TRIM9]	Yes
DPLPAAAVGAAAEAEADEEADPPA [SNX8]	Yes
VEVDESEPYPSQLLKPIPEYSPEE [TRAF3IP2]	Yes
